assay: A549 cytotoxicity analysis (CellTiter-Glo); assay type: cell-based; settings: human; A549 cells, 48 hours, CellTiter-Glo; read-out: A549 Cytotoxicity (2-day) CC50
RECORDED METRIC: CC50 at 48 h (µM)
Numbers only, in µM.

## Input For the molecule shown here, `CCC(CC)COC(=O)[C@H](C)N[P@@](=O)(OC[C@H]1O[C@@](C#N)(c2ccc3c(N)ncnn23)[C@H](O)[C@@H]1O)Oc1ccccc1` , give the reported CC50 at 48 h.
## Output 17.7
